Data provenance is patent US20240240209A1.

experiment description: Cell lysate reaction of pMT enzymes with psi-ionone, irones quantified by HS-SPME-GCMS
Format: biochemical
assay conditions: pMT1_E153 mutants; AUC vs non-mutated (=1)
Source text: Using the structure of pMT1 in complex with the cofactor S-adenosyl-L-homocysteine (SAH) and the substrate teleocidin A1 (PDB id: 5GM2) as a template, pMT1 bound to each of the four isomers of α-irone was modelled with the aim of identifying amino acid residues that could be critical to increase cis-α-irone or decrease trans-α-irone production (FIGS. 2d and 2e). […] HS-SPME-GCMS analysis was used to quantify the amount of irones produced by each pooled-colony reaction. […]
measured property: fold change in cis-α-irone produced
Could you keep your reply to the number by itself?

molecule: pMT1_E153K: pMT1 with E153K (protein) MPQEARTPQQQVTADEVGDWYDKFGEVYHLTLGESVHCGLWFPPDAPVPQDMELVTMSSQAQDRYTDYLIETLDPKAGQHLLDIGCGTGRTALKAARQRGIAVTGVAVSKEQIAAANRLAAGHGLTERLTFEVADAMRLPYEDESFDCAWAIKSLCHMDRAKALGEAWRVLKPGGDLLVLESVVTEELTEPETALFETLYAANVPPRLGEFFDIVSGAGFHTLSLKDLSANLAMTMNVFALGVYSRRAEFTERFGAEFVDGLLAGLGSAQETLIRKTRFFMATLRKPAV
experimental result: 0.0
--
molecule: pMT1: wild-type bifunctional methyltransferase and cyclase TleD from Streptomyces blastmyceticus (protein, listed as Streptomyces blastmyceticus) MPQEARTPQQQVTADEVGDWYDKFGEVYHLTLGESVHCGLWFPPDAPVPQDMELVTMSSQAQDRYTDYLIETLDPKAGQHLLDIGCGTGRTALKAARQRGIAVTGVAVSKEQIAAANRLAAGHGLTERLTFEVADAMRLPYEDESFDCAWAIESLCHMDRAKALGEAWRVLKPGGDLLVLESVVTEELTEPETALFETLYAANVPPRLGEFFDIVSGAGFHTLSLKDLSANLAMTMNVFALGVYSRRAEFTERFGAEFVDGLLAGLGSAQETLIRKTRFFMATLRKPAV
experimental result: 1.0
--
molecule: pMT1_E153Y: pMT1 with E153Y (protein) MPQEARTPQQQVTADEVGDWYDKFGEVYHLTLGESVHCGLWFPPDAPVPQDMELVTMSSQAQDRYTDYLIETLDPKAGQHLLDIGCGTGRTALKAARQRGIAVTGVAVSKEQIAAANRLAAGHGLTERLTFEVADAMRLPYEDESFDCAWAIYSLCHMDRAKALGEAWRVLKPGGDLLVLESVVTEELTEPETALFETLYAANVPPRLGEFFDIVSGAGFHTLSLKDLSANLAMTMNVFALGVYSRRAEFTERFGAEFVDGLLAGLGSAQETLIRKTRFFMATLRKPAV
experimental result: 0.0

Consider now this further molecule.
Need fold change in cis-α-irone produced, item pMT1_E153G: pMT1 with E153G (protein) MPQEARTPQQQVTADEVGDWYDKFGEVYHLTLGESVHCGLWFPPDAPVPQDMELVTMSSQAQDRYTDYLIETLDPKAGQHLLDIGCGTGRTALKAARQRGIAVTGVAVSKEQIAAANRLAAGHGLTERLTFEVADAMRLPYEDESFDCAWAIGSLCHMDRAKALGEAWRVLKPGGDLLVLESVVTEELTEPETALFETLYAANVPPRLGEFFDIVSGAGFHTLSLKDLSANLAMTMNVFALGVYSRRAEFTERFGAEFVDGLLAGLGSAQETLIRKTRFFMATLRKPAV
0.0
